# credit: patent US20120172339A1

# TARGET: CB1 cannabinoid receptor (Homo sapiens, UniProt P21554)
# Sequence (P21554 whole entry): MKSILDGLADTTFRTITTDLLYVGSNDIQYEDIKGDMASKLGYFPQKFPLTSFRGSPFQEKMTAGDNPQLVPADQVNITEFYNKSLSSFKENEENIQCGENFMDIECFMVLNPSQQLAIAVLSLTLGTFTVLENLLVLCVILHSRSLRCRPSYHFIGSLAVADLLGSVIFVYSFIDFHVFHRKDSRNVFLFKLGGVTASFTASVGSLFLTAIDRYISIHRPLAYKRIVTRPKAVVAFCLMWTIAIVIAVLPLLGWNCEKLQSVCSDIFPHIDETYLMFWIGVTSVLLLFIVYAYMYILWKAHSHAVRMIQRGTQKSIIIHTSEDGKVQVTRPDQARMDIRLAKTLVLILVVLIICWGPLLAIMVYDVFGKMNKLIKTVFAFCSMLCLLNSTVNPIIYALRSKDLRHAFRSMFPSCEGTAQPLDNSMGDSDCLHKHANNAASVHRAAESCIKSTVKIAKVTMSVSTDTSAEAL
# EXPERIMENTAL_PROTOCOL: CB1 receptor binding affinity
# TEST_PARAMETERS: read-out: CB1 Receptor Ki
pKi: −log10 of the molar value.
Please note: MET applies when pKi is 5 or greater, and NOT MET applies otherwise.

COMPOUND | ASSIGNED_LABEL
C=C(C)[C@@H]1CCC(C)=C[C@H]1c1c(O)cc(F)cc1O (relative stereo) | NOT MET

We now examine a further compound.
(Q) Given C=C(C)[C@@H]1CCC(C)=C[C@H]1c1c(O)cc(O)cc1Cl (relative stereo) , state whether its pKi is at least 5.
(A) MET

###

# TARGET: CB2 cannabinoid receptor (Homo sapiens)
# Sequence (P34972 whole entry): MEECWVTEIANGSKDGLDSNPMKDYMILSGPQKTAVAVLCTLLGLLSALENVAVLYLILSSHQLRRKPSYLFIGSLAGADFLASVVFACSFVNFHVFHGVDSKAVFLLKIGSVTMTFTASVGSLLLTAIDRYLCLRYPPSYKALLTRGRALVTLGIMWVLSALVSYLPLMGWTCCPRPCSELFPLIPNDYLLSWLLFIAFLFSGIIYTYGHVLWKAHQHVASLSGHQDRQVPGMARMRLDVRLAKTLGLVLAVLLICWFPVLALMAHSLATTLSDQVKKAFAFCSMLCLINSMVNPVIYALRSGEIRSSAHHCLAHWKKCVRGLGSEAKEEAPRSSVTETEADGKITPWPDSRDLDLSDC
# EXPERIMENTAL_PROTOCOL: CB2 receptor binding affinity
# Method: Some disclosed compounds were tested for CB1 and CB2 receptors binding affinity (Table 5). As used herein “binding affinity” is represented by the Ki value. The Ki value is the affinity constant and describes the affinity of the compound for the receptor. […]
Recorded pKi for the following molecules
Interpret pKi as the negative base-10 log of the concentration measured in mol/L.

MOLECULE | TARGET | pKi
C=C(C)[C@@H]1CCC(C)=C[C@H]1c1c(O)cc(CCCCBr)cc1O (relative stereo) | CB2 cannabinoid receptor (Homo sapiens) | 7.23
C=C(C)[C@@H]1CCC(C)=C[C@H]1c1c(O)cc(O)cc1CCCCCCC (relative stereo) | CB2 cannabinoid receptor (Homo sapiens) | 6.40
C=C(C)[C@@H]1CCC(C)=C[C@H]1c1c(O)cc(O)cc1CCCCC (relative stereo) [Compound 4.2, reference compound] | CB2 cannabinoid receptor (Homo sapiens) | 5.02

Continue with the next molecule.
(Q) Any idea what pKi was measured for C=C(C)[C@@H]1CCC(C)=C[C@H]1c1c(O)cc(CCCCCCC)cc1O (relative stereo) ?
(A) 5.85

###

Recorded Ki for the following compounds
# TARGET: UniProt P21554
# EXPERIMENTAL_PROTOCOL: CB1 receptor binding affinity
Use nM as the unit, but write only the number.

COMPOUND | MEASURED_QUANTITY | RESULT
C=C(C)[C@@H]1CCC(C)=C[C@H]1c1c(O)cc(O)cc1CCCCC (relative stereo) [Compound 4.2, reference compound] | Ki | 4780
C=C(C)[C@@H]1CCC(C)=C[C@H]1c1c(O)cc(CCCCCCC)cc1O (relative stereo) | Ki | 651
C=C(C)[C@@H]1CCC(C)=C[C@H]1c1c(O)cc(O)cc1CCCCCCC (relative stereo) | Ki | 250

Continue with the next compound.
(Q) Any idea what Ki was measured for C=C(C)[C@@H]1CCC(C)=C[C@H]1c1c(O)cc(CCCCBr)cc1O (relative stereo) ?
(A) 192

###

Recorded Ki for the following compounds
# TARGET: CB2 cannabinoid receptor (Homo sapiens)
# EXPERIMENTAL_PROTOCOL: CB2 receptor binding affinity
# TEST_PARAMETERS: read-out: CB2 Receptor Ki
Use µM as the unit, but write only the number.

The cases that follow already have their Ki on record.
COMPOUND | MEASURE_UNIT | Ki
CCCCCc1cc(O)c([C@@H]2C=C(C)[C@@H]3C[C@H]2C3(C)C)c(O)c1 | µM | 0.565
C=C(C)[C@@H]1CCC(C)=C[C@H]1c1c(O)cc(O)cc1I (relative stereo) | µM | 10.5
C=C(C)[C@@H]1CCC(C)=C[C@H]1c1c(O)cc(I)cc1O (relative stereo) | µM | 2.19
C=C(C)[C@@H]1CCC(C)=C[C@H]1c1c(O)cc(O)cc1Br (relative stereo) | µM | 13.3
C=C(C)[C@@H]1CCC(C)=C[C@H]1c1c(O)cc(O)cc1Cl (relative stereo) | µM | 4.97

(Q) Any idea what Ki was measured for C=C(C)[C@@H]1CCC(C)=C[C@H]1c1c(O)cc(O)cc1CCCCBr (relative stereo) ?
(A) 5.73

(Q) What about C=C(C)[C@@H]1CCC(C)=C[C@H]1c1c(O)cc(F)cc1O (relative stereo) ?
(A) 43.4

(Q) What about CCCCCc1cc(O)cc(O)c1[C@@H]1C=C(C)[C@@H]2C[C@H]1C2(C)C ?
(A) 19

(Q) What about C=C(C)[C@@H]1CCC(C)=C[C@H]1c1c(O)cc(CBr)cc1O (relative stereo) ?
(A) 10.8

(Q) What about CCCCCc1cc(O)cc(O)c1[C@H]1C=C(C)[C@H]2C[C@@H]1C2(C)C ?
(A) 4.94

(Q) What about [2H]C([2H])([2H])CCc1cc(O)cc(O)c1[C@@H]1C=C(C)CC[C@H]1C(=C)C (relative stereo) ?
(A) 19

(Q) What about [2H]C([2H])([2H])CCc1cc(O)c([C@@H]2C=C(C)CC[C@H]2C(=C)C)c(O)c1 (relative stereo) ?
(A) 2.58

###

Recorded melting point for the following molecules

The cases that follow already have their melting point on record.
MOLECULE | melting point
C=C(C)[C@@H]1CCC(C)=C[C@H]1c1c(O)cc(O)cc1F (relative stereo) | 105 to 106 °C
C=C(C)[C@@H]1CCC(C)=C[C@H]1c1c(O)cc(I)cc1O (relative stereo) | 128 to 130 °C
C=C(C)[C@@H]1CCC(C)=C[C@H]1c1c(O)cc(O)cc1Cl (relative stereo) | 101 to 103 °C

Continue with the next molecule.
(Q) Any idea what melting point was measured for C=C(C)[C@@H]1CCC(C)=C[C@H]1c1c(O)cc(O)cc1CC#N ?
(A) 131 to 133 °C

###

# TARGET: CB1 cannabinoid receptor (Homo sapiens)
# EXPERIMENTAL_PROTOCOL: CB1 receptor binding affinity
# TEST_PARAMETERS: read-out: CB1 Receptor Ki
pKi: −log10 of the molar value.
Please note: fulfilled applies when pKi is 5 or greater, and not fulfilled applies otherwise.

Use these answered entries as a reference point.
MOLECULE | TARGET | ASSIGNED_LABEL
C=C(C)[C@@H]1CCC(C)=C[C@H]1c1c(O)cc(I)cc1O (relative stereo) | CB1 cannabinoid receptor (Homo sapiens) | fulfilled
C=C(C)[C@@H]1CCC(C)=C[C@H]1c1c(O)cc(C)cc1O (relative stereo) | CB1 cannabinoid receptor (Homo sapiens) | not fulfilled
C=C(C)[C@@H]1CCC(C)=C[C@H]1c1c(O)cc(CC#N)cc1O (relative stereo) | CB1 cannabinoid receptor (Homo sapiens) | fulfilled
C=C(C)[C@@H]1CCC(C)=C[C@H]1c1c(O)cc(CBr)cc1O (relative stereo) | CB1 cannabinoid receptor (Homo sapiens) | fulfilled
C=C(C)[C@@H]1CCC(C)=C[C@H]1c1c(O)cc(O)cc1F (relative stereo) | CB1 cannabinoid receptor (Homo sapiens) | fulfilled
[2H]C([2H])([2H])CCc1cc(O)cc(O)c1[C@@H]1C=C(C)CC[C@H]1C(=C)C (relative stereo) | CB1 cannabinoid receptor (Homo sapiens) | not fulfilled

(Q) Given CCCCCc1cc(O)c([C@@H]2C=C(C)[C@@H]3C[C@H]2C3(C)C)c(O)c1 , state whether its pKi is at least 5.
(A) fulfilled

(Q) What about C=C(C)[C@@H]1CCC(C)=C[C@H]1c1c(O)cc(CC(=O)OC)cc1O (relative stereo) ?
(A) fulfilled

(Q) What about C=C(C)[C@@H]1CCC(C)=C[C@H]1c1c(O)cc(CCCCCCC)c([C@@H]2C=C(C)CC[C@H]2C(=C)C)c1O (relative stereo) ?
(A) not fulfilled

(Q) What about C=C(C)[C@@H]1CCC(C)=C[C@H]1c1c(O)cc(CN=[N+]=[N-])cc1O (relative stereo) ?
(A) fulfilled

(Q) What about C=C(C)[C@@H]1CCC(C)=C[C@H]1c1c(O)cc(O)cc1O (relative stereo) ?
(A) not fulfilled

###

# TARGET: CB1 cannabinoid receptor (Homo sapiens, UniProt P21554)
# EXPERIMENTAL_PROTOCOL: CB1 receptor binding affinity
# TEST_PARAMETERS: read-out: CB1 Receptor Ki
Recorded pKi for the following compounds
Interpret pKi as the negative base-10 log of the concentration measured in mol/L.

COMPOUND | RESULT
C=C(C)[C@@H]1CCC(C)=C[C@H]1c1c(O)cc(O)cc1I (relative stereo) [Compound 4.11] | 4.88
C=C(C)[C@@H]1CCC(C)=C[C@H]1c1c(C)cc(O)cc1O (relative stereo) [Compound 4.1] | 5.00

(Q) Any idea what pKi was measured for CCCCCc1cc(O)cc(O)c1[C@H]1C=C(C)[C@H]2C[C@@H]1C2(C)C [Compound 9.2] ?
(A) 5.03

###

# TARGET: UniProtKB P34972
# EXPERIMENTAL_PROTOCOL: CB2 receptor binding affinity
# TEST_PARAMETERS: read-out: CB2 Receptor Ki
pKi: −log10 of the molar value.
Please note: true applies when pKi is 5 or greater, and false applies otherwise.

Use these answered entries as a reference point.
MOLECULE | ASSIGNED_LABEL
C=C(C)[C@@H]1CCC(C)=C[C@H]1c1c(O)cc(O)cc1O (relative stereo) | false
C=C(C)[C@@H]1CCC(C)=C[C@H]1c1c(O)cc(CCCCCCC)c([C@@H]2C=C(C)CC[C@H]2C(=C)C)c1O (relative stereo) | false
C=C(C)[C@@H]1CCC(C)=C[C@H]1c1c(O)cc(CN=[N+]=[N-])cc1O (relative stereo) | true
C=C(C)[C@@H]1CCC(C)=C[C@H]1c1c(O)cc(CC#N)cc1O (relative stereo) | true
C=C(C)[C@@H]1CCC(C)=C[C@H]1c1c(O)cc(C)cc1O (relative stereo) | false
C=C(C)[C@@H]1CCC(C)=C[C@H]1c1c(C)cc(O)cc1O (relative stereo) | false

(Q) Given C=C(C)[C@@H]1CCC(C)=C[C@H]1c1c(O)cc(CC(=O)OC)cc1O (relative stereo) , state whether its pKi is at least 5.
(A) true
